Target: Retinoic acid receptor gamma (Homo sapiens, UniProt P13631)
Sequence (P13631 whole entry): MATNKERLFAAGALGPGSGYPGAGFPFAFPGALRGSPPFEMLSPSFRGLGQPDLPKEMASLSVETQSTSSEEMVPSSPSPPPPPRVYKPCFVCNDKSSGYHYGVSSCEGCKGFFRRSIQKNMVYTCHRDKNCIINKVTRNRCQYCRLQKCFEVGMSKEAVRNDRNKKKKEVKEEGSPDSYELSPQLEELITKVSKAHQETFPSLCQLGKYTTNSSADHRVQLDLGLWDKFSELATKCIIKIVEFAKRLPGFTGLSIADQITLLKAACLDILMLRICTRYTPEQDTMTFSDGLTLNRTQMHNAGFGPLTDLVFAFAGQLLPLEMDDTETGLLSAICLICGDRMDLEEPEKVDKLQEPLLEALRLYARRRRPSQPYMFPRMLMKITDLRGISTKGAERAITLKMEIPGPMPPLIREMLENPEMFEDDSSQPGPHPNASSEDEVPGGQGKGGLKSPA
Assay: Transcriptional activation in CV-1 cells expressing retinoic acid receptor RAR gamma
Assay type: functional, cell-based
measurement.type: EC50 (µM)

P. CC(/C=C/C1(c2ccc3c(c2)C(C)(C)CCC3(C)C)CC1)=C\C(=O)O
Q. CC(/C=C/C1(c2cc3c(cc2C)C(C)(C)CCC3(C)C)CCCC1)=C\C(=O)O
Choose between P and Q : whose measured EC50 value is numerically larger? Your answer should be the label of the entry you select.
Q
(Q: 1.78 µM, P: 0.399 µM)

Hello, the source for this data is ChEMBL document CHEMBL1129213, in case you need it.
